Hello, the source for this data is the supplement of paper PMC13380429, in case you need it.

# System: Calu-3
# Measurement Description: cell viability relative to DMSO; higher = less toxic
# Conditions Used: 72 h; 1 nM
Measure Name: cell viability (%)

molecule=COc1ccc(C(=O)c2ccccc2O)c(O)c1 test_value=106
molecule="C[C@]12CC[C@@H]3c4ccc(OC(=O)N(CCCl)CCCl)cc4CC[C@H]3[C@@H]1CC[C@@H]2OP(=O)(O)O [estramustine-phosphate]" test_value=99
molecule=C=CC[C@@H]1/C=C(\C)C[C@H](C)C[C@H](OC)[C@H]2O[C@@](O)(C(=O)C(=O)N3CCCC[C@H]3C(=O)O[C@H](/C(C)=C/[C@@H]3CC[C@@H](O)[C@H](OC)C3)[C@H](C)[C@@H](O)CC1=O)[C@H](C)C[C@@H]2OC test_value=99.1
molecule=CCn1cc(C(=O)O)c(=O)c2cc(F)c(N3CCN(C)CC3)cc21 test_value=100
molecule=Nc1nc(=O)n([C@H]2C[C@H](O)[C@@H](CO)O2)cc1F test_value=85.1
molecule=CN(Cc1ccccc1)C(=O)[C@H](Cc1ccc2ccccc2c1)NC(=O)[C@@H]1C[C@@H](O)CN1C(=O)c1cn(C)c2ccccc12 test_value=99.3
molecule="N[C@@H](C(=O)O)c1cc(O)cc(O)c1 [dihydroxyphenylglycine]" test_value=104
molecule="Cc1ccc(S(=O)(=O)NC(=O)NN2CCCCCC2)cc1 [tolazamide]" test_value=92.2
molecule=N#Cc1cccc(-c2c[nH]c3ncnc(N4CCOCC4)c23)c1 test_value=99
molecule="CNC(=O)ON(C(C)=O)C(=O)NC [caracemide]" test_value=94
molecule=Cc1ccc2c(N3CCN(CCc4cccc(N5CCNC5=O)c4)CC3)cccc2n1 test_value=93.6
molecule=CS(=O)(=O)Nc1ccc(-c2coc3cc(OCc4cccc(C(=O)O)c4)ccc3c2=O)cc1 test_value=108
molecule=O=[N+]([O-])c1cccc2cn[nH]c12 test_value=102
